target: mouse TAAR1 (Mus musculus (Mouse))
Sequence (Q923Y8 whole entry): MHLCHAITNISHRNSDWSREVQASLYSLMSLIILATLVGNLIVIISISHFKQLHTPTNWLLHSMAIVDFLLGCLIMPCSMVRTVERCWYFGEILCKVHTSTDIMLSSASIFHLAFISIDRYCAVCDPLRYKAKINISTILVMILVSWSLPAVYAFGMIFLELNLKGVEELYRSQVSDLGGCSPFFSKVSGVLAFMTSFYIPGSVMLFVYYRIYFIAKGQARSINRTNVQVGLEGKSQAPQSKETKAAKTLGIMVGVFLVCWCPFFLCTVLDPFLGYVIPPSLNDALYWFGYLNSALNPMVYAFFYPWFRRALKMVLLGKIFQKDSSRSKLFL
measured endpoint: pKi
# log scale: pKi equals minus log10 of the concentration in mol/L

Examples with their reported pKi follow.
- record smiles: "Cn1nc(C(=O)Nc2ccc(OC3CNC3)cc2)c(Cl)c1C(F)(F)F"
  target of assay: "mouse TAAR1 (Mus musculus (Mouse))"
  endpoint result: 8.17
- record smiles: "COc1ccc(NC(=O)Nc2ccc(OC3CNC3)cc2)cc1"
  target of assay: "mouse TAAR1 (Mus musculus (Mouse))"
  endpoint result: 6.97
- record smiles: "O=C(Nc1ccc(SC2CNC2)cc1)c1cnc(C(F)(F)F)nc1"
  target of assay: "mouse TAAR1 (Mus musculus (Mouse))"
  endpoint result: 7.45
- record smiles: "O=C(Nc1ccc(NC2CNC2)cc1)c1ccnc(C(F)(F)F)c1"
  target of assay: "mouse TAAR1 (Mus musculus (Mouse))"
  endpoint result: 7.11
- record smiles: "O=C(Nc1ccc(SC2CNC2)cc1)Nc1ccc(C(F)(F)F)cc1"
  target of assay: "mouse TAAR1 (Mus musculus (Mouse))"
  endpoint result: 7.88

Now for a further compound.
Task: Item O=C(Nc1ccc(SC2CNC2)cc1)c1[nH]nc(C2CC2)c1Cl with mouse TAAR1 (Mus musculus (Mouse)) - pKi?
Output: 8.51
